Test system: Saccharomyces cerevisiae
Test: protein stability index of tFT-peptide fusion (C-terminal peptide) (PSI (0-1 scale)); higher = more stable (slower turnover)
Details: genetic background: das1 deletion; temperature: 37 C
The sequences listed here are annotated with their protein stability index.
measure name: protein stability index

INSERT INTO results (sequence_content, test_value) VALUES
  ('SLVLLLLITFSL', 0.527),
  ('LVRGSRLIVIVG', 0.518),
  ('WYVRVYVLSVES', 0.311),
  ('SNFFPVPLLLFR', 0.383),
  ('SVLVWVFGLFVI', 0.56),
  ('NDKGKKTKIKIV', 0.737),
  ('FYFRSSFFTICF', 0.46),
  ('VVGVVVCWGRGW', 0.653),
  ('LCGYVGVVVCLV', 0.433),
  ('FWGRAGVWRLKG', 0.782);

---

System: Saccharomyces cerevisiae
Assay: protein stability index of tFT-peptide fusion (C-terminal peptide) (PSI (0-1 scale)); higher = more stable (slower turnover)
Conditions: genetic background: das1 deletion; temperature: 30 C
measure name: protein stability index

INSERT INTO assay_data (sequence_content, target_entity, test_value) VALUES
  ('RYIRHLQQNVST [PHO4 C-terminal 12 aa]', 'Saccharomyces cerevisiae', 0.688),
  ('MTLDSWQPLTPK [INP53 C-terminal 12 aa]', 'Saccharomyces cerevisiae', 0.723),
  ('VTEAESTASAST [BUD20 C-terminal 12 aa]', 'Saccharomyces cerevisiae', 0.7),
  ('INPMPANFAELS [FAL1 C-terminal 12 aa]', 'Saccharomyces cerevisiae', 0.721),
  ('HDELKYPVDMVI [PDR17 C-terminal 12 aa]', 'Saccharomyces cerevisiae', 0.705),
  ('LQYKKVGKWRED [URB2 C-terminal 12 aa]', 'Saccharomyces cerevisiae', 0.724),
  ('HKELLAKLEGSD [HNT1 C-terminal 12 aa]', 'Saccharomyces cerevisiae', 0.688),
  ('TPHNHNQNQHTN [RSF1 C-terminal 12 aa]', 'Saccharomyces cerevisiae', 0.72),
  ('DFFREVKYGKKQ [ODC1 C-terminal 12 aa]', 'Saccharomyces cerevisiae', 0.71),
  ('AMDHKFFKTKFE [CKA2 C-terminal 12 aa]', 'Saccharomyces cerevisiae', 0.688),
  ('DETIKLKDKKIK [MRPL6 C-terminal 12 aa]', 'Saccharomyces cerevisiae', 0.714),
  ('ERDTTTKPSKRR [KEL3 C-terminal 12 aa]', 'Saccharomyces cerevisiae', 0.709),
  ('GNSDGSVEVTEK [RKI1 C-terminal 12 aa]', 'Saccharomyces cerevisiae', 0.69),
  ('FKLKDEYLLIDD [SAS2 C-terminal 12 aa]', 'Saccharomyces cerevisiae', 0.69),
  ('QSFETVFAGQKP [MET17 C-terminal 12 aa]', 'Saccharomyces cerevisiae', 0.701),
  ('AFGNGFNSSIRW [NRP1 C-terminal 12 aa]', 'Saccharomyces cerevisiae', 0.71),
  ('RKQAHELRPKSE [SPO7 C-terminal 12 aa]', 'Saccharomyces cerevisiae', 0.77),
  ('DFFYFFQGPFVL [YOR072W-B C-terminal 12 aa]', 'Saccharomyces cerevisiae', 0.721),
  ('ISTLKAIYNKMD [PEX9 C-terminal 12 aa]', 'Saccharomyces cerevisiae', 0.691),
  ('GELFQIVSNQSS [STE6 C-terminal 12 aa]', 'Saccharomyces cerevisiae', 0.702),
  ('LSTLGVGAAIIS [AVT1 C-terminal 12 aa]', 'Saccharomyces cerevisiae', 0.695),
  ('GGFDDGFDGSDF [WWM1 C-terminal 12 aa]', 'Saccharomyces cerevisiae', 0.719),
  ('SKRVYSICHYEF [ABM1 C-terminal 12 aa]', 'Saccharomyces cerevisiae', 0.693),
  ('GNINDDDDGFFD [PLP2 C-terminal 12 aa]', 'Saccharomyces cerevisiae', 0.724),
  ('KYEPTQEIIEDI [ITR1 C-terminal 12 aa]', 'Saccharomyces cerevisiae', 0.693);

---

Tested on: Saccharomyces cerevisiae
Experiment: protein stability index of tFT-peptide fusion (C-terminal peptide) (PSI (0-1 scale)); higher = more stable (slower turnover)
Conditions: genetic background: wild type; temperature: 30 C
So basically: protein stability index at 0.7 or higher? That is Yes. Lower than 0.7? That is No.

INSERT INTO results (sequence_content, class) VALUES
  ('WAGLAQPKLVLH', 'No'),
  ('PPPPHSAPLFLS', 'No'),
  ('TRETKKSIKKQN', 'No'),
  ('SRTPLASTPPHR', 'Yes'),
  ('FLPHSPSLPQLP', 'No'),
  ('WCPVHGSGGAPL', 'No'),
  ('LIPLPPPPLPPP', 'No'),
  ('GGGVRGGVLVLG', 'No'),
  ('LPLCSPPAPPSS', 'No'),
  ('GAILQVEAITHN', 'No'),
  ('WGGCALEQGGAV', 'Yes'),
  ('GGGCGLFVFLSL', 'No'),
  ('FVFFRFSLLFFF', 'No'),
  ('PDPPSPSPFPAP', 'Yes'),
  ('SGDLLLGCTLVV', 'No'),
  ('EREGREGKGRER', 'Yes'),
  ('RLGGRGRGSIHS', 'No'),
  ('YVEVLLFTSVGF', 'No'),
  ('VFCSVGVSLFFG', 'No'),
  ('VWLGTGGSYGFC', 'Yes'),
  ('SYGNGIPIRMLH', 'No'),
  ('GSVYFDLLCVRP', 'Yes'),
  ('VFFLRVHFWSFF', 'No'),
  ('ALLLSHFLFFYA', 'No'),
  ('WCCVFVARFFWL', 'No'),
  ('GVVRGEAGVIGR', 'Yes'),
  ('EGKGKGRGEVKE', 'No'),
  ('EFDCVGCFRTLR', 'No'),
  ('PPFFPLRPSLVL', 'No');

---

Test system: Saccharomyces cerevisiae
Assay: protein stability index of tFT-peptide fusion (C-terminal peptide) (PSI (0-1 scale)); higher = more stable (slower turnover)
Details: genetic background: wild type; temperature: 30 C
# cutoff 0.7 applies to protein stability index; >= gives YES, < gives NO

INSERT INTO assay_data (sequence_content, class) VALUES
  ('FNLFWPVSAFVV', 'NO'),
  ('PPSLLPAPQLPP', 'YES'),
  ('LMYGSVGVRGGE', 'YES'),
  ('PRLFPSSPLPFN', 'YES'),
  ('PAHPSDIGAAAP', 'NO'),
  ('LPTGLKTFLIAF', 'NO'),
  ('TLNKDILIIKCA', 'NO'),
  ('FFTFTMSIPRWL', 'NO'),
  ('GFRPVVAGIGHS', 'NO'),
  ('GESWCGLVWPGG', 'NO'),
  ('RSSLSGLPPLPP', 'YES'),
  ('LPPPSLPGPSAS', 'YES'),
  ('LLILSLLVLSSR', 'NO'),
  ('ATIRSSQGFKIY', 'NO'),
  ('SKFNSLNNHRKG', 'NO'),
  ('NLSLPSPPLTTN', 'YES');

---

Parameter: protein stability index. Scope: all listed entries.
Test system: Saccharomyces cerevisiae
Assay: protein stability index of tFT-peptide fusion (C-terminal peptide) (PSI (0-1 scale)); higher = more stable (slower turnover)
Details: genetic background: wild type; temperature: 30 C
measure name: protein stability index

INSERT INTO assay_data (sequence_content, test_value) VALUES
  ('SSVCLYWCCLFV', 0.426),
  ('FWCVFVFFVCVG', 0.238),
  ('SRLVIGRWSVLV', 0.217),
  ('GCVMSVCSLAVS', 0.458),
  ('LLLPVFRFFFVN', 0.109),
  ('APPLPFPTPPPS', 0.633),
  ('GLLSLSGLRWFC', 0.19),
  ('SSGSLLLPRFLT', 0.243),
  ('FCIIVFYIFVGI', 0.333),
  ('PPPPHSAPLFLS', 0.261),
  ('RGWGGGTWVKMG', 0.121),
  ('KIVNNTKKNKCH', 0.195),
  ('SSAPTIVIWRFS', 0.428),
  ('PLHPSSTPATPF', 0.683),
  ('PSLAASFWRVVG', 0.109),
  ('VLICFSVFSWVV', 0.0178),
  ('FTRWLVYCTPLC', 0.441),
  ('IRRWGRCRVRCM', 0.288),
  ('SLRSLYLLARLS', 0.0777),
  ('FGRAVWSRFCIV', 0.128),
  ('WGCIFWFFDVRV', 0.207),
  ('PSFSLLRSLTLI', 0.205),
  ('VLVVLVVCRRAE', 0.226),
  ('YMNLYKNVISVT', 0.353),
  ('GLIICRRCLWCC', 0.182),
  ('RVGYSIIIIGIE', 0.303),
  ('FMCCFWFFWLGF', 0.438),
  ('LGVVVGGVRGVG', 0.46),
  ('WAAVGIQLRLLF', 0.199),
  ('VWFFLLSFANRL', 0.45),
  ('YGWGFLFILTLM', 0.101),
  ('PLPSRAPVQFLL', 0.199),
  ('WVVWWFACVFGV', 0.28),
  ('LIRDLLYMAVLV', 0.281),
  ('AFVVYSGSHGLV', 0.654),
  ('VTGFGVAIVCVT', 0.241),
  ('FLMCVFFLCFSN', 0.22),
  ('PVPPRVNLLRVS', 0.263),
  ('VFRLLALLWRFF', 0.31),
  ('FWGRAGVWRLKG', 0.276),
  ('VLVLSFLYRMVK', 0.304),
  ('CSSIFSSSDCYA', 0.68),
  ('AGALAVALPCIC', 0.358),
  ('SLLFVFVSVGCI', 0.148),
  ('GLFCCFLCLSVF', 0.204),
  ('PFGPTFSPRPFR', 0.701),
  ('CWLFVWVRVISL', 0.12),
  ('VAFLWVAFCFSG', 0.203),
  ('CVLGWCSLIAWC', 0.242),
  ('FVVHPARYYLVL', 0.385),
  ('GKWVWSSFVWFG', 0.0965),
  ('PGWALLQLVFLK', 0.353),
  ('CGWVRRARVKMM', 0.137),
  ('WVIWFFVAACLR', 0.212),
  ('FNLFWPVSAFVV', 0.254),
  ('KVALWRRGVLAA', 0.161),
  ('VWFGGLAVCCGG', 0.303),
  ('VVVCSLVPLFVL', 0.235),
  ('PLLPPLSTPPPA', 0.677),
  ('FYFRSSFFTICF', 0.352),
  ('PSCLLVAPRFSS', 0.694),
  ('FSICGFYSLCFG', 0.512),
  ('LVRDEVLKVKLV', 0.17),
  ('CLFRVCLFILSI', 0.3),
  ('GVRAGVRRAGVG', 0.382),
  ('FVVWKDVLVMVR', 0.192),
  ('LFMRGEDEMFSV', 0.672),
  ('SVLVWVFGLFVI', 0.392),
  ('TVRVVMLRLLFT', 0.33),
  ('LSFLSLIFSICY', 0.333),
  ('HVRLRFQPVLFV', 0.382),
  ('PPPLLVRPWFLV', 0.157),
  ('VFFLRVHFWSFF', 0.168),
  ('VVSGLNYCLVLS', 0.28),
  ('SYLPSHVYIFLL', 0.0758),
  ('AFFLLVSLLVSP', 0.132),
  ('RALSLPPLLLVL', 0.326),
  ('FCFFSMGFVLAL', 0.314),
  ('WHLLRFETQMFC', 0.164),
  ('YLVSFVAFLRLF', 0.0919),
  ('PRFLRWLFSLLI', 0.592),
  ('LQSYVSRLVRLS', 0.186);
